meta.source: the supplement of paper PMC10567573

Catalogue of protein stability index values
B1: SOAT1 (parent)
chain: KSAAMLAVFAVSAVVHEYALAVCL

- Variants of: B1
- Test: protein stability index of a GFP-peptide fusion (GPS, HEK-293T) (PSI 1-6); higher = more stable;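 further: lentivirally expressed fusions sorted by FACS into six bins by GFP to DsRed ratio, PSI derived from sequencing read proportions per bin multiplied by bin number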
- Stated Conditions: c terminus: a fixed tail appended
The answer should be written as a number, with no unit following it.

Data request: Could you share which protein stability index value was measured for `A7D` ?
Data returned: 2.99
